- Tested on: LPS-induced microglia activation
- TEST: Image-based assay of LPS-induced microglia activation (HTS and dose response)
- Assay type: cell-based, rat
- RUN_CONDITIONS: Rattus norvegicus, Microglia, 48 h, primary microglia HTS, LPS stimulation; increased cell size (>800 μm^2) as marker of activation; read-out: LPS % inhibition
EXPERIMENTAL_READOUT: inhibition at 10 µM (%)
Report the figure in % without appending any unit label.

The cases that follow already have their inhibition at 10 µM on record.
COMPOUND	EXPERIMENTAL_TARGET	RECORDED_NUMBER
CCCCCCCCCCCCCCCC[N+](C)(C)C [Cetrimonium]	LPS-induced microglia activation	132
COCCc1ccc(OCC(O)CNC(C)C)cc1 (centres unmarked) [Metoprolol]	LPS-induced microglia activation	22
CC1(C)O[C@@H]2C[C@H]3[C@@H]4C[C@H](F)C5=CC(=O)C=C[C@]5(C)[C@H]4[C@@H](O)C[C@]3(C)[C@]2(C(=O)CO)O1 [Flunisolide, reference compound]	LPS-induced microglia activation	101
CC(C)n1c(/C=C/C(O)CC(O)CC(=O)O)c(-c2ccc(F)cc2)c2ccccc21 (centres unmarked) [Fluvastatin]	LPS-induced microglia activation	101
Cc1cc2c(cc1S(N)(=O)=O)S(=O)(=O)CCC2 [Meticrane]	LPS-induced microglia activation	9
NC(=O)C[S+]([O-])C(c1ccccc1)c1ccccc1 (centres unmarked) [Modafinil]	LPS-induced microglia activation	25
CC(=O)OCC(=O)[C@@]1(O)CC[C@H]2[C@@H]3CCC4=CC(=O)CC[C@]4(C)[C@H]3[C@@H](O)C[C@@]21C [Hydrocortisone acetate, reference compound]	LPS-induced microglia activation	89
C/C(=C\C(=O)OCCCCCCCCC(=O)O)C[C@@H]1OC[C@H](C[C@@H]2O[C@H]2[C@@H](C)[C@H](C)O)[C@@H](O)[C@H]1O [Mupirocin]	LPS-induced microglia activation	20

Entry O=C(CCNNC(=O)c1ccncc1)NCc1ccccc1 [Nialamide] , inhibition at 10 µM reported as 11

Entry Cc1ccc(Cl)c(Nc2ccccc2C(=O)O)c1Cl [Meclofenamic Acid] , inhibition at 10 µM reported as 14

Entry CN1C(CCl)Nc2cc(Cl)c(S(N)(=O)=O)cc2S1(=O)=O (centres unmarked) [Methyclothiazide] , inhibition at 10 µM reported as 17

====

- Test system: primary rat microglia
- TEST: Cell toxicity (dead cells, size <150 μm2) in coated fibrin (cFib) assay;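 also: share of dead cells sized under 150 µm2 at 10 µM in fibrin-stimulated microglia HTS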
- RUN_CONDITIONS: primary microglia HTS, fibrin assay, dead cells (size <150 μm2), compounds at 10 μM
Counter-ions that a name gives are not always drawn.
EXPERIMENTAL_READOUT: Fibrin % cell toxicity (%)
Report the figure in % without appending any unit label.

> print(dat)
                                   compound    experimental.readout  recorded.number
1             COc1ccc(C(=O)c2ccccc2O)c(O)c1  Fibrin % cell toxicity                1
2            CN1CCN(C(c2ccccc2)c2ccccc2)CC1  Fibrin % cell toxicity                0
3  CC(CCc1ccc(O)cc1)NCCc1ccc(O)c(O)c1 (centres unmarked) [Dobutamine Hydrochloride]  Fibrin % cell toxicity                1
4            CC(=O)Oc1cccc(C(=O)O)c1OC(C)=O  Fibrin % cell toxicity                1

Entry CCOc1ccc2nc(S(N)(=O)=O)sc2c1 [Ethoxzolamide] , Fibrin % cell toxicity reported as 1

====

- Test system: LPS-induced microglia activation
- TEST: Image-based assay of LPS-induced microglia activation (HTS and dose response)
- Format: cell-based, rat
- RUN_CONDITIONS: Rattus norvegicus, Microglia, 48 h, primary microglia HTS, LPS stimulation; increased cell size (>800 μm^2) as marker of activation; read-out: LPS % inhibition
Where a name gives a salt, the structure may show the parent alone.
EXPERIMENTAL_READOUT: inhibition at 10 µM
State the value with its unit after it.

MOLECULE	RESULT
CC(=O)OC(C)C[N+](C)(C)C (centres unmarked)	9%
c1ccc2[nH]c(-c3cscn3)nc2c1 [Thiabendazole, reference compound]	62%
CN(C)CCCOc1nn(Cc2ccccc2)c2ccccc12 [Benzydamine hydrochloride, reference compound]	102%
C[C@]12C/C(=C/O)C(=O)C[C@@H]1CC[C@@H]1[C@@H]2CC[C@@]2(C)[C@H]1CC[C@]2(C)O	-7%
CCOC(=O)[N-]c1cn(N2CCOCC2)n[o+]1 [Molsidomine, reference compound]	124%
CCCCC(=O)O[C@]1(C(=O)CO)CC[C@H]2[C@@H]3CCC4=CC(=O)CC[C@]4(C)[C@H]3[C@@H](O)C[C@@]21C [Hydrocortisone valerate, reference compound]	73%
COc1ccc2cc1Oc1ccc(cc1)C[C@H]1c3c(cc4c(c3Oc3cc5c(cc3OC)CCN(C)[C@@H]5C2)OCO4)CCN1C	130%

Entry COC(=O)C(N)CS (centres unmarked) [Mecysteine Hydrochloride] , inhibition at 10 µM reported as 22%

====

This section presents molecules with their documented Fibrin % cell toxicity values.
- Test system: primary rat microglia
- TEST: Cell toxicity (dead cells, size <150 μm2) in coated fibrin (cFib) assay;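 also: share of dead cells sized under 150 µm2 at 10 µM in fibrin-stimulated microglia HTS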
- RUN_CONDITIONS: primary HTS, 10 μM, fibrin assay, dead cells size <150 μm2
Report the figure in % without appending any unit label.

The cases that follow already have their Fibrin % cell toxicity on record.
> print(dat)
                                   molecule    experimental.readout  recorded.number
1     COc1c2ccoc2cc2oc(=O)ccc12 [Bergapten]  Fibrin % cell toxicity                1
2  C=C[C@H]1CN2CC[C@H]1C[C@H]2[C@H](O)c1ccnc2ccccc12 [Cinchonidine]  Fibrin % cell toxicity                1
3  CCCCN(CCCC)CCCOC(=O)c1ccc(N)cc1 [Butacaine]  Fibrin % cell toxicity                0

Per the reported primary rat microglia data, CCCCCCNC(=O)n1cc(F)c(=O)[nH]c1=O [Carmofur] has Fibrin % cell toxicity of 0

Per the reported primary rat microglia data, C=C1CC[C@H](O)C/C1=C/C=C1\CCC[C@]2(C)[C@@H]([C@H](C)CCCC(C)(C)O)CC[C@@H]12 [Calcidiol] has Fibrin % cell toxicity of 1

Per the reported primary rat microglia data, O=P(O)(O)C(Cl)(Cl)P(=O)(O)O [Clodronate] has Fibrin % cell toxicity of 1

====

- System: primary rat microglia
- TEST: Cell toxicity (dead cells, size <150 μm2) in coated fibrin (cFib) assay;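 also: share of dead cells sized under 150 µm2 at 10 µM in fibrin-stimulated microglia HTS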
- RUN_CONDITIONS: primary microglia HTS, fibrin assay, dead cells (size <150 μm2)
Structures can show the parent of a compound that is named as a salt.
EXPERIMENTAL_READOUT: Fibrin % cell toxicity (%)
Report the figure in % without appending any unit label.

The cases that follow already have their Fibrin % cell toxicity on record.
> print(dat)
                                   compound  recorded.number
1  CCN1CCCC1CNC(=O)c1cc(S(=O)(=O)CC)c(N)cc1OC (stereo not drawn) [Amisulpride, reference compound]                1
2  CCCCC(CC)COc1ccc(-c2nc(-c3ccc(OC)cc3)nc(-c3ccc(OCC(CC)CCCC)cc3O)n2)c(O)c1 (stereo not drawn) [Bemotrizinol]                1
3  Nc1c(Br)cc(Br)cc1CN[C@H]1CC[C@H](O)CC1 [Ambroxol Hydrochloride]                0
4        CC(=O)Nc1ccc(CC(=O)O)cc1 [Actarit]                1
5  C=CC(N)CCC(=O)O (racemic) [(±)-gamma-vinyl Gaba, Vigabatrin]                1

Then this compound:
Entry O=C(O)CCCCCCCC(=O)O [Azelaic Acid] , Fibrin % cell toxicity reported as 0

====

- Test system: fibrin-induced microglia activation
- TEST: Image-based assay of fibrin-induced microglia activation (HTS and dose response)
- Type: cell-based, rat
- RUN_CONDITIONS: Rattus norvegicus, Microglia, fibrin-induced microglia activation, dose response; read-out: Fibrin IC50 (uM) (Suppl. Table 7)
Counter-ions that a name gives are not always drawn.
This section presents compounds with their documented IC50 values.
Report the figure in µM without appending any unit label.

Entry O=P(O)(O)C(O)(Cc1cccnc1)P(=O)(O)O [Risedronate sodium, reference compound] , IC50 reported as 19

Entry CC[C@@H](C(=O)[C@@H](C)[C@@H](O)[C@H](C)[C@@H]1O[C@@H]([C@@H](CC)C(=O)O)CC[C@@H]1C)[C@H]1O[C@]2(C=C[C@@H](O)[C@]3(CC[C@@](C)([C@H]4CC[C@](O)(CC)[C@H](C)O4)O3)O2)[C@H](C)C[C@@H]1C [Salinomycin, sodium, reference compound] , IC50 reported as 2

Entry Cc1cccc(C)c1N=C1NCCCS1 [Xylazine hydrochloride, reference compound] , IC50 reported as 2

Entry CC(NCCc1ccc(O)cc1)C(O)c1ccc(O)cc1 (stereo not shown) [Ritodrine hydrochloride, reference compound] , IC50 reported as 0.6

Entry O=P(O)(O)C(O)(Cn1ccnc1)P(=O)(O)O [Zoledronic acid, reference compound] , IC50 reported as 2

Entry COc1c(C)c2c(c(O)c1C/C=C(\C)CCC(=O)O)C(=O)OC2 [Mycophenolic acid, reference compound] , IC50 reported as 1

Entry O=c1[nH]cc(F)c(=O)[nH]1 [Fluorouracil, reference compound] , IC50 reported as 7

Entry C[C@H](N)[C@H](O)c1ccc(O)c(O)c1 [Levonordefrin, reference compound] , IC50 reported as 0.9

Entry COc1cc([C@@H]2c3cc4c(cc3[C@@H](O[C@@H]3O[C@@H]5CO[C@@H](c6cccs6)O[C@H]5[C@H](O)[C@H]3O)[C@H]3COC(=O)[C@H]23)OCO4)cc(OC)c1O [Teniposide, reference compound] , IC50 reported as 2
